# tested_target: Zinc finger protein mex-5 (Caenorhabditis elegans, UniProt Q9XUB2)
# Sequence (Q9XUB2 whole entry): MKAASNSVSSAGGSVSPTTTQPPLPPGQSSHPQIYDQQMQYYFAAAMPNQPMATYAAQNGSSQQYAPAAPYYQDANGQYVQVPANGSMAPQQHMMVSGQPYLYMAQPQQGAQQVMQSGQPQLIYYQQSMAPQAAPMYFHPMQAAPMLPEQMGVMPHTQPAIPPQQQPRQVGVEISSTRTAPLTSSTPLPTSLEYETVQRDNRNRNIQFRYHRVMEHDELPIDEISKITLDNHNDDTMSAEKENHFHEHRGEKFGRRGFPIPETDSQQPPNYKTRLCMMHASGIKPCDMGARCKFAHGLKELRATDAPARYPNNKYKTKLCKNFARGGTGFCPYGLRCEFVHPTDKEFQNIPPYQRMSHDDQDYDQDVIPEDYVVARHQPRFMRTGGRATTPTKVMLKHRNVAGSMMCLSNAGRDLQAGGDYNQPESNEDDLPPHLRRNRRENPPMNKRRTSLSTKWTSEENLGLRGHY
# test_details: MEX-5/TCR-2 RNA interaction inhibitors, dose response, biochemical, C. elegans, fluorescence polarization (AID 1960)
Calls of active or inactive are those of the source.
measured_parameter: EC50

{"compound": "Cc1ccc(C(=O)O)cc1-n1c(C)cc(C=O)c1C", "tested_target": "Zinc finger protein mex-5 (Caenorhabditis elegans, UniProt Q9XUB2)", "EC50": "> 300 µM (not active)"}
{"compound": "COc1ccc(NS(=O)(=O)c2ccc3c(c2)[C@H]2C=CC[C@H]2[C@@H](c2ccc(C(=O)O)cc2)N3)cc1", "tested_target": "Zinc finger protein mex-5 (Caenorhabditis elegans, UniProt Q9XUB2)", "EC50": "7.88 µM (active)"}

Q. Fill in: EC50 of CCCCOC(=O)c1ccc(N=Nc2c(O)nc(O)c(C#N)c2C)cc1 is ___
A. > 300 µM (inconclusive)

Q. Fill in: EC50 of O=C(O)c1ccccc1-n1c2ccccc2c2ccccc21 is ___
A. > 300 µM (not active)

Q. Fill in: EC50 of Cc1ccc(CN2C(=O)N/C(=C\c3cccn3-c3cccc(C(=O)O)c3)C2=O)cc1 is ___
A. > 300 µM (not active)

Q. Fill in: EC50 of COc1ccc(/C=C/C(=O)c2c(C)cc(C)nc2O)c2ccccc12 is ___
A. > 300 µM (not active)

Q. Fill in: EC50 of Cc1c(N/C=C2/C(=O)N(C)C(=O)c3ccccc32)c(=O)n(-c2ccccc2)n1C is ___
A. > 300 µM (inconclusive)

Q. Fill in: EC50 of CC(C)(O)[C@H]1O[C@H]2CC[C@@]3(C)[C@@](O)(CC[C@H]4Cc5c([nH]c6ccccc56)[C@@]43C)C2=CC1=O is ___
A. 12.3 µM (active)

Q. Fill in: EC50 of CCOCCCn1/c(=N/C(=O)c2cccs2)c(C#N)cc2c(=O)n3cccc(C)c3nc21 is ___
A. > 150 µM (not active)

* * *

Here, each record is paired with measured IC50 data.
# tested_target: Induced myeloid leukemia cell differentiation protein Mcl-1 (Homo sapiens)
# Sequence (Q07820 whole entry): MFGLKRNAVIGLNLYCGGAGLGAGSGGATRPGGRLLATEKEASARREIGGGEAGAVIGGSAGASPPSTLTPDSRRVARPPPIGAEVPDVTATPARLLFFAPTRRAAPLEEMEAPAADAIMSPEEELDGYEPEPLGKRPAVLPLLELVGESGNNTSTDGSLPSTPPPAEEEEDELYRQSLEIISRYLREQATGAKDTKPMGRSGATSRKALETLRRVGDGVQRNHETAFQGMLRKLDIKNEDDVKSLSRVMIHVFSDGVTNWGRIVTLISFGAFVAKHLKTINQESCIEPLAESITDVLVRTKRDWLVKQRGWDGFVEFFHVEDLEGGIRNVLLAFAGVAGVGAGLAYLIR
# Type: functional
Calls of active or inactive are those of the source.

Examples with their reported IC50 follow.
{"molecule": "O=C(CCN1CCN(c2ccccc2)CC1)N/N=C/c1ccc(O)c(O)c1O", "result": "6.59 µM (active)"}
{"molecule": "CC(=O)Nc1ccc(-c2csc(NC(=O)C3CC(=O)N(c4ccc5c(c4)OCCO5)C3)n2)cc1 (configuration not stated)", "result": "3.44 µM (active)"}
{"molecule": "Cc1ccc(/C=C2\\C(=O)NC(=S)N(c3ccccc3F)C2=O)s1", "result": "4.91 µM (active)"}

Q. Query for Induced myeloid leukemia cell differentiation protein Mcl-1 (Homo sapiens): what IC50 does the record show for COc1ccc(/C=C2/C(=O)N(c3nc4ccccc4s3)N=C2CSc2ccc(Cl)cc2)cc1 ?
A. 1.69 µM (active)

Q. Query for Induced myeloid leukemia cell differentiation protein Mcl-1 (Homo sapiens): what IC50 does the record show for CCOC(=O)C1CCCN(c2ccc(NC(=O)c3snc4c(=O)[nH]c(C)nc34)cc2)C1 (configuration not stated) ?
A. 5.25 µM (active)

Q. Query for Induced myeloid leukemia cell differentiation protein Mcl-1 (Homo sapiens): what IC50 does the record show for CC(=O)N1CCc2cc(S(=O)(=O)NC(Cc3ccccc3)C(=O)NC3CCCCCC3)ccc21 (configuration not stated) ?
A. 4.58 µM (not active)

Q. Query for Induced myeloid leukemia cell differentiation protein Mcl-1 (Homo sapiens): what IC50 does the record show for C=C(C)C(=O)Nc1cccc(C2=NOC3(C2)C[C@@H](C(N)=O)N(C(=O)/C(C)=C/C)C3)c1 (some centres not stated) ?
A. 23.6 µM (not active)

* * *

# tested_target: Caspase-3 (Homo sapiens, UniProt P42574);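 also: Dose-response selectivity test against caspase-3 for candidate inhibitors of sentrin-specific proteases (SENPs)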
# Sequence (P42574 29-175 limits assumed): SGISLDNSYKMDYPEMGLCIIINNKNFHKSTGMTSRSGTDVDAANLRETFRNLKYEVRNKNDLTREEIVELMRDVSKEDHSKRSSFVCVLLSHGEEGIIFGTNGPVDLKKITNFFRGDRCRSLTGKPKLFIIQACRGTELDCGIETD
# Sequence (P42574 176-277 limits assumed): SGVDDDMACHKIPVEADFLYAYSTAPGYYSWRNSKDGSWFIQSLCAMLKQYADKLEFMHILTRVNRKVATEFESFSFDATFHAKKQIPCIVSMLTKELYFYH
# Type: functional
The source made the active and inactive calls.
measured_parameter: IC50

Examples with their reported IC50 follow.
{"item_smiles": "O=[N+]([O-])c1ccc(-c2nc3cc([N+](=O)[O-])ccc3[nH]2)cc1", "IC50": "27.2 µM (active)"}
{"item_smiles": "COc1cc(C#Cc2ccc3cc(CCCO)oc(=O)c3c2)cc(OC)c1", "IC50": "21 µM (active)"}
{"item_smiles": "CC(=O)c1sc(N/N=C\\c2ccccc2O)nc1C", "IC50": "11 µM (active)"}
{"item_smiles": "O/C(=C\\c1nc2ccccc2[nH]1)c1cccs1", "IC50": "9.98 µM (active)"}
{"item_smiles": "Cc1ccc(-c2nnc(Nc3ccccc3)[nH]2)cc1", "IC50": "40.4 µM (active)"}
{"item_smiles": "O=C(Cc1ccccc1F)Nc1ccc(SC(F)F)cc1", "IC50": "41.8 µM (active)"}
{"item_smiles": "O=C(/C=C/c1cccs1)c1ccc(N2CCOCC2)cc1", "IC50": "6.94 µM (active)"}

Kindly review the next compound as well.
Q. Fill in: IC50 of O=C(Nc1ccc(NC(=O)c2cccs2)c(Cl)c1)c1cccs1 is ___
A. 17.4 µM (active)

* * *

Here, each record is paired with measured IC50 data.
# tested_target: Genome polyprotein (dengue virus type 2, UniProt P29990)
# Sequence (P29990 2492-3391 limits assumed): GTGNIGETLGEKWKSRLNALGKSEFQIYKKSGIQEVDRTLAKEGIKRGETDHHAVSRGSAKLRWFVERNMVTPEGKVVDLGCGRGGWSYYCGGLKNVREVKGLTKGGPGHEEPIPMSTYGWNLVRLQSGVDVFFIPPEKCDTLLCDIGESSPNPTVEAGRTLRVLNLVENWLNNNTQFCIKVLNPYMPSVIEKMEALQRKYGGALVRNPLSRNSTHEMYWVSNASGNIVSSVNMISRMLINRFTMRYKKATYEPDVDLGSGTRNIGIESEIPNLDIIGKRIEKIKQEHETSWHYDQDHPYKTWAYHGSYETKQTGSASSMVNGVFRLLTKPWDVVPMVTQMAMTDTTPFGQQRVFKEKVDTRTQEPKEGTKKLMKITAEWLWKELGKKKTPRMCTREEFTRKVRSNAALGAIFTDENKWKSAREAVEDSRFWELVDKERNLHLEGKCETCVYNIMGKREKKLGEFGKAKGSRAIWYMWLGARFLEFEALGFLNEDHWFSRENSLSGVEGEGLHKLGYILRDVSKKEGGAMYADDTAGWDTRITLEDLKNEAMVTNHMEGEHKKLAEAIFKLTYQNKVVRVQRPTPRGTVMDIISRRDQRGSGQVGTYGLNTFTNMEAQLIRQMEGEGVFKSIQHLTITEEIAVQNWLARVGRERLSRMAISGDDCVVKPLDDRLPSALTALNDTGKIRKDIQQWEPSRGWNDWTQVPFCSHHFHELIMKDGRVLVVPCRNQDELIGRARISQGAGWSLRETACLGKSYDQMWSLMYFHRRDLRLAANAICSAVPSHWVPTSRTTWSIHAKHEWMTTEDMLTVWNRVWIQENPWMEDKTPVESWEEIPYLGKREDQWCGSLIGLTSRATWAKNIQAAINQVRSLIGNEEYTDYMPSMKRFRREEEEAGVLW
# test_details: Dengue-2 NS5 methyltransferase inhibitors, primary screen, biochemical, confirmation dose response (AID 588689)
# Assay type: functional
Calls of active or inactive are those of the source.

Examples with their reported IC50 follow.
{"item_smiles": "COc1ccc2nc(N3CCC(O)CC3)c(C#N)cc2c1", "IC50": "59.2 µM (active)"}
{"item_smiles": "O=C(O)c1cccc2c1C(=O)c1ccc(-c3ccc(F)cc3OCc3ccccc3)cc1S2(=O)=O", "IC50": "50.5 µM (active)"}
{"item_smiles": "Cc1n[nH]c(O)c1C(c1ccc(-c2ccc(F)cc2)o1)c1c(C)n[nH]c1O", "IC50": "58.1 µM (active)"}
{"item_smiles": "O=C(CCN1CCN(c2ccccc2)CC1)N/N=C/c1ccc(O)c(O)c1O", "IC50": "30.1 µM (active)"}

Q. Fill in: IC50 of COc1ccc(NS(=O)(=O)c2ccc3c(c2)[C@H]2C=CC[C@H]2[C@@H](c2ccc(C(=O)O)cc2)N3)cc1 is ___
A. 44.3 µM (active)

Q. Fill in: IC50 of O=C1C(=O)c2c(C(=O)c3ccccc3)coc2-c2ccccc21 is ___
A. 82.3 µM (active)

* * *

Here, each record is paired with measured AC50 data.
# tested_target: Cytochrome P450 3A4 (Homo sapiens, UniProt P08684);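 also: CYP3A4 tested as one member of a cytochrome P450 panel screen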
# Sequence (P08684 whole entry): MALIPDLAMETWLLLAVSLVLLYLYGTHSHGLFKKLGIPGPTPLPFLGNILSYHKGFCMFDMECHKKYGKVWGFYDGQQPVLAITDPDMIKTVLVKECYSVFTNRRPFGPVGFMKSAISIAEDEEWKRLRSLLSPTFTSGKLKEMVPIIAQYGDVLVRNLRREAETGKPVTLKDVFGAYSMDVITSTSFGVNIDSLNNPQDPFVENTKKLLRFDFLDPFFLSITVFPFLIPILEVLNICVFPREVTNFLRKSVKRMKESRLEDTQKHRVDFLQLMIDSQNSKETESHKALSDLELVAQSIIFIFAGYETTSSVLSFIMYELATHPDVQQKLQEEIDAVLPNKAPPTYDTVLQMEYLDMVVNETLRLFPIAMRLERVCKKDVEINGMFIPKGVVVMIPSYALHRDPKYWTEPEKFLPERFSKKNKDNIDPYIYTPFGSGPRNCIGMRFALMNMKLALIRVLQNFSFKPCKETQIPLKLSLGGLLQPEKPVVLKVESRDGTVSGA

Examples with their reported AC50 follow.
{"molecule": "COc1cccc(Cn2c(=O)c(-c3cn(C)c4ccccc34)nc3cncnc32)c1", "tested_target": "Cytochrome P450 3A4 (Homo sapiens, UniProt P08684)", "measured_parameter": "AC50", "result": "10 µM (inconclusive)"}
{"molecule": "CCOC(=O)c1[nH]c2cc(OC)c(OC)cc2c1NC(=O)c1nonc1C", "tested_target": "Cytochrome P450 3A4 (Homo sapiens, UniProt P08684)", "measured_parameter": "AC50", "result": "2.82 µM (inconclusive)"}
{"molecule": "Oc1ccc(CCNCc2cc3c(cc2Br)OCO3)cc1", "tested_target": "Cytochrome P450 3A4 (Homo sapiens, UniProt P08684)", "measured_parameter": "AC50", "result": "3.98 µM (inconclusive)"}

Q. Fill in: AC50 of C/C(CC(=O)NCc1ccco1)=N\NC(=O)Cc1ccccc1 is ___
A. 17.8 µM (inconclusive)

Q. Fill in: AC50 of Cc1ccc(C(=O)c2oc3nc(C)cc(C)c3c2N)cc1 is ___
A. 0.891 µM (inconclusive)

Q. Fill in: AC50 of C[C@@H]1OC2C3=C(C(=O)[C@H]4O[C@@H]4[C@H]3O)[C@@H]1[C@H]1[C@H](C)OC=C3[C@H](O)[C@H]4O[C@H]4/C(=N\OCc4ccccc4)[C@@]321 is ___
A. 3.98 µM (inconclusive)

Q. Fill in: AC50 of CCOc1cc(/C=C2\C(=O)N(Cc3ccc(C)cc3)C(C)=C2C(=O)OC)ccc1O is ___
A. 1 µM (inconclusive)

Q. Fill in: AC50 of Cc1c(Cl)cccc1NC(=O)C[C@H]1Sc2ccccc2NC1=O is ___
A. 3.98 µM (inconclusive)

Q. Fill in: AC50 of COc1ccc(-c2c[n+]3c4n2CCCCC4=C(c2ccccc2)C3)cc1 is ___
A. 3.16 µM (inconclusive)

Q. Fill in: AC50 of COC(=O)C(Cc1c[nH]c2ccccc12)NC(=O)C(C)C (centres undefined) is ___
A. 31.6 µM (inconclusive)

Q. Fill in: AC50 of CCCCCCCCCCn1c2c(c(=N)c3c1CCC3)CCC2 is ___
A. 31.6 µM (inconclusive)
